- System Tested: Human immunodeficiency virus type 1 integrase (Human immunodeficiency virus 1)
- Assay Name: Inhibition of strand transfer activity of HIV-1 integrase
Measurement Kind: IC50 (µM)

1: COc1cc(/C=C/C(=O)CC(=O)/C=C/c2ccc(O)c(O)c2)ccc1O
2: O=C(/C=C/c1ccc(O)c(O)c1)CC(=O)/C=C/c1ccc(O)c(O)c1
3: O=C(/C=C/c1ccc(O)cc1)CC(=O)/C=C/c1ccc(O)cc1 [BISDEMETHOXYCURCUMIN]
Descending sort on IC50 required. Would you mind listing the labels in the order requested?
3, 1, 2
(3: 80 µM, 1: 9 µM, 2: 3.1 µM)

###

- System Tested: Human immunodeficiency virus type 1 integrase (Human immunodeficiency virus 1, UniProt Q7ZJM1)
- Sequence (Q7ZJM1 whole entry): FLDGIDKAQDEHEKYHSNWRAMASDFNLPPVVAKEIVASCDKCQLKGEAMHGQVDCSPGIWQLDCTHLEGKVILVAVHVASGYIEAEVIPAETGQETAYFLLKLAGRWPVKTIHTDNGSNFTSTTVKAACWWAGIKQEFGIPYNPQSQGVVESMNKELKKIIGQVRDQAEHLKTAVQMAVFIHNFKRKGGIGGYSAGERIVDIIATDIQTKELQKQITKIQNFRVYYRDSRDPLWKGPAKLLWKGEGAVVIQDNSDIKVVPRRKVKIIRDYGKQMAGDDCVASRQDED
- Assay Name: Inhibition of 3'- processing activity of HIV-1 integrase
Measurement Kind: IC50 (µM)

Consider the reported IC50 for these compounds:
Smiles String	Output Unit	IC50
O=C(/C=C/c1ccc(O)c(O)c1)O[C@H](Cc1ccc(O)c(O)c1)C(=O)O	µM	9
COc1cc(/C=C/C(O)=C/C(=O)/C=C/c2ccc(O)cc2)ccc1O	µM	140
O=C(/C=C/c1ccc(O)cc1)CC(=O)/C=C/c1ccc(O)cc1	µM	120

1: COc1cc(/C=C/C(=O)CC(=O)/C=C/c2ccc(O)c(O)c2)ccc1O
2: O=C(/C=C/c1ccc(O)c(O)c1)CC(=O)/C=C/c1ccc(O)c(O)c1
3: COc1cc(/C=C/C(=O)CC(=O)/C=C/c2ccc(O)c(OC)c2)ccc1O
Your job: order these 3 records by IC50, ascending. Would you mind listing the labels in the order requested?
2, 1, 3

FYI, the data here is from ChEMBL document CHEMBL1130151.
